Cited source for all entries: ChEMBL document CHEMBL2034853

Test: Cmax in Balb/c mouse at 20 mg/kg, po
Type: ADME, organism-based
Parameters: dose 20 mg/kg, route oral
Settings: in vivo

molecular.string: Cc1ccc(NC(=O)Nc2cc(C(F)(F)F)ccc2F)cc1Nc1ccc2c(c1)NC(=O)/C2=C\c1ccc[nH]1
Cmax / nM: 1170

* * *

Assay: Volume of distribution at steady state in Sprague-Dawley rat at 3 mg/kg, iv
Assay type: ADME, organism-based
Set-up: dose 3 mg/kg, route intravenous
Conditions: in vivo, read-out: Vdss

molecular.string: Cc1ccc(NC(=O)Nc2cc(C(F)(F)F)ccc2F)cc1Nc1ccc2c(c1)NC(=O)/C2=C\c1ccc[nH]1
Vd [L/kg]: 3.6
